experimental target: Arginase-2, mitochondrial (Homo sapiens) (UniProt P78540)
Sequence (P78540 whole entry): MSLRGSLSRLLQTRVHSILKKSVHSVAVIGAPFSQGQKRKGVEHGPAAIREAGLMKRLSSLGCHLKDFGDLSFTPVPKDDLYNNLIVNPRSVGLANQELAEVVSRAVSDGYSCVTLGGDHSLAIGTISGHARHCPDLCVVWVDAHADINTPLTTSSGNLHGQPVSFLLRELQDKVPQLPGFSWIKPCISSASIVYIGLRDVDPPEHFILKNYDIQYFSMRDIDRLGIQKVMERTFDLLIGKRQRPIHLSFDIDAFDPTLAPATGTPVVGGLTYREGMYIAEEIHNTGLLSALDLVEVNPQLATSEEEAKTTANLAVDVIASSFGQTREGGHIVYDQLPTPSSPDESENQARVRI
protocol text: in vitro enzyme assay to detect the production of urea directly proportional to the activity of Arginase II
Format: functional
Set-up: scale not given: in the data most compounds retested in dose-response had high values
condition summary: 33.3 µM
Kindly state Percent Effect for each of the entries shown.
Answers are plain numbers, in %.

molecule: COc1cnc(C2(O)CCN(C(=O)c3ccncc3)CC2)c(OC)n1
experimental target: Arginase-2, mitochondrial (Homo sapiens) (UniProt P78540)
Percent Effect (%): -1.16

Would you mind giving Percent Effect for every molecule in the list below?
1. CN1CCC(CCNC(=O)c2ccc(N(C)S(C)(=O)=O)cc2Cl)CC1
2. CCn1c(CN2CCC(O)(C(=O)OC)CC2)nc2c(F)cccc21
3. c1cnc(N2CCCC(NCc3cccc4c3OCCO4)C2)nc1 (configuration not stated)
4. O=C1[C@H]2CC[C@H](CN(S(=O)(=O)c3ccccc3)C2)N1Cc1cscn1
5. COCC(=O)N(C)Cc1cccc(Cl)c1

## Result
1: 29; 2: -3.06; 3: -4.81; 4: -2.4; 5: 0

## Task Fill in the blank: the reported Percent Effect of COc1ncccc1C(=O)NCC(C)Oc1cccnc1 (configuration not stated) is ____.
## Result 1.91

---

experimental target: Chromo domain-containing protein 1 (Saccharomyces cerevisiae (strain ATCC 204508 / S288c) (Baker's yeast)) (UniProt P32657)
Sequence (P32657 whole entry, the tested form may be a part): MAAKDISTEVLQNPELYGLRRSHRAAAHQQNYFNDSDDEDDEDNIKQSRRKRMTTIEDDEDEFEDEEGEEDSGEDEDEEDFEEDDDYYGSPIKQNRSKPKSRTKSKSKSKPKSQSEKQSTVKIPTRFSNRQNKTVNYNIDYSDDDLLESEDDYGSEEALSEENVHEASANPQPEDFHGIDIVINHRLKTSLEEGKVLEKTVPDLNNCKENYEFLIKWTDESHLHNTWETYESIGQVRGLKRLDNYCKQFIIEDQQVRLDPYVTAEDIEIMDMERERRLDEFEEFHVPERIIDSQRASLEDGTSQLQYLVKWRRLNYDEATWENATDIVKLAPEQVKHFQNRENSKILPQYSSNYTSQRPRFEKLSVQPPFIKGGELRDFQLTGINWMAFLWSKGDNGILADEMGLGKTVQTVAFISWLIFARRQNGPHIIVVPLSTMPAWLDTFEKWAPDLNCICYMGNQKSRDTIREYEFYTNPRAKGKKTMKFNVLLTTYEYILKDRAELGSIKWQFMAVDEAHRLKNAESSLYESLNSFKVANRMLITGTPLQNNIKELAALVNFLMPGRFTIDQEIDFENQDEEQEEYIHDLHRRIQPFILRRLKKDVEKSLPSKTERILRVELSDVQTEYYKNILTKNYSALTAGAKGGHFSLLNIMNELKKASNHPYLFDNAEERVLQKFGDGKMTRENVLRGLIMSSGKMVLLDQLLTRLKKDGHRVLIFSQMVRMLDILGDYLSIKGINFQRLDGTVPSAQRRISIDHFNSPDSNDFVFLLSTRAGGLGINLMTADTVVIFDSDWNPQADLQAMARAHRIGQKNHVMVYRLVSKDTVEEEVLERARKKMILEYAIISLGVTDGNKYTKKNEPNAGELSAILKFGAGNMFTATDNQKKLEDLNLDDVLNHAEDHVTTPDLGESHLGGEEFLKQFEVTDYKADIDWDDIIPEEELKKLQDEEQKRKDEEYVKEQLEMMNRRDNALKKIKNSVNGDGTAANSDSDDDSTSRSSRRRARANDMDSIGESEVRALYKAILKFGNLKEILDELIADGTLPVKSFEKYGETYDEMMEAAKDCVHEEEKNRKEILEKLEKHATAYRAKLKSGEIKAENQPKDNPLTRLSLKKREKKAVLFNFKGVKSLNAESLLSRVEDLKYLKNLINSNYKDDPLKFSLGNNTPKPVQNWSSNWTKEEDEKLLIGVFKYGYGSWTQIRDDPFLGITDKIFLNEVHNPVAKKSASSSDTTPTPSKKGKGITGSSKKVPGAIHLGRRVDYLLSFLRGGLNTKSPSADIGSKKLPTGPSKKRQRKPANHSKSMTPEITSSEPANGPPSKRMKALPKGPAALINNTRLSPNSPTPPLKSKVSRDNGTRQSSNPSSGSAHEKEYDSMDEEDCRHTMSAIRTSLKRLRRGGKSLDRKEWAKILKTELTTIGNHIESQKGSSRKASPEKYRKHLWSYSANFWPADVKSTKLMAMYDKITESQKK
protocol text: ScCHD-1 Enzyme Inhibition Assay
Format: functional
Parameters: scale not given: in the data most compounds retested in dose-response had high values
condition summary: 30 µM
readout kind: Percent Effect (%)
Answers are plain numbers, in %.

compound: NCCn1nc(C2CCN(Cc3ccc(Cl)c(Cl)c3)C2)c2nccnc21 (stereo not given)
readout kind: Percent Effect
value observed: -23.3
//
compound: COc1ccccc1S(=O)(=O)Nc1ccc2c(C(=O)O)c[nH]c2c1
readout kind: Percent Effect
value observed: -7.94
//
compound: CNC(=O)CSc1nc2c(cnn2Cc2ccc(F)cc2)c(=O)[nH]1
readout kind: Percent Effect
value observed: -6.75
//
compound: Cc1cnn(CC(C)NCc2csc(-c3ccco3)n2)c1 (stereo not given)
readout kind: Percent Effect
value observed: -23.7
//
compound: Cc1occc1C(=O)Nc1ccnc(OC2CCOC2)c1 (stereo not given)
readout kind: Percent Effect
value observed: -2.37
//
compound: Cn1cnc(S(=O)(=O)NCCCN2CCOCC2)c1Cl
readout kind: Percent Effect
value observed: -8.3

Would you mind giving Percent Effect for every compound in the list below?
1. COCC1CC2(CCN(C(=O)c3cccc(C)c3)CC2)CO1 (stereo not given)
2. O=C(O)c1c[nH]c2cc(NS(=O)(=O)c3cccc(Cl)c3F)ccc12
3. CC(O)CN1CCN(C(=O)c2cnn(-c3ccccc3F)c2)CC1 (stereo not given)
4. CN(CCn1cccn1)S(=O)(=O)N1CCCC1c1ccco1 (stereo not given)

## Result
[-5.05, 0.552, -7.25, 3.02]

Would you mind giving Percent Effect for every compound in the list below?
1. COc1ccc(NC(=O)N2CCCC2c2ccco2)cc1OC (stereo not given)
2. CC(O)CN1CCC(CNCc2cccc(Br)c2)CC1 (stereo not given)

## Result
-9.73
4.26

Would you mind giving Percent Effect for every compound in the list below?
1. CN(C)CC1CSCCCN1C(=O)Nc1ccc(C(C)(C)C)cc1 (stereo not given)
2. CCN1CCN(c2ncc(-c3cc(C)no3)c(-c3ccc(C)s3)n2)CC1
3. CCc1nc(CN2CCOC(Cn3nc(C)nc3C)C2)no1 (stereo not given)

## Result
-4.09
-15.6
-6.23
